Numbers sourced from patent US12264139B2.

ASSAYED_TARGET: human BLT1 receptor (Homo sapiens, UniProt Q15722)
Construct: expressed in transfected cells; host or cells: HEK293
Sequence (Q15722 whole entry): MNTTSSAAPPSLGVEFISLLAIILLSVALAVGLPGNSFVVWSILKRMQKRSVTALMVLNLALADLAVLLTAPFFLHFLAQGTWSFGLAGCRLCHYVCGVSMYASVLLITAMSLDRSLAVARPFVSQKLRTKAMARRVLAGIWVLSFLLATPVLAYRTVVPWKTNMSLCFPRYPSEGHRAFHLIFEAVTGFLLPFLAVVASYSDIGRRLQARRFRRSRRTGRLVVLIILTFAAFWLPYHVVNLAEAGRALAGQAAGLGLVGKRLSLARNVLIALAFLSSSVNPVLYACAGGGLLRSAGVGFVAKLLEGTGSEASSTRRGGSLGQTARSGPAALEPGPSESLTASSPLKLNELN
METHOD_DESCRIPTION: BLT-1 cAMP Assay
Type: cell-based
RUN_CONDITIONS: HEK293 cells recombinantly expressing human BLT1; antagonist activity vs forskolin 4 μM and LTB4 2 nM; cAMP (CisBio kit)
Procedure: The ability of compounds to antagonize the human BLT1 receptor was determined using a kit to measure changes in intracellular cyclic AMP levels (cAMP dynamic assay kit, Cisbio Cat. No. 62AM4PEC). […] The levels of cAMP were detected using the CisBio kit following the manufacturer's instructions: cAMP-d2 vial was reconstituted with distilled water and then diluted accordingly with conjugate & lysis buffer. […]
MEASUREMENT_KIND: EC50 (nM)
Your answer should be a plain number; it is taken to be in nM.

compound="O=S(=O)(Nc1nnc(Cl)cc1-c1ccc2c(c1)OC[C@@H](Cc1ccccn1)[C@@H]2O)C(F)(F)F (single isomer, unassigned)" unit_string=nM result_value=2690
compound="O=S(=O)(Nc1ccccc1-c1ccc2c(c1)OC[C@@H](Cc1ccc(-c3ccccc3)cn1)[C@@H]2O)C(F)(F)F (racemic) [Example 38]" unit_string=nM result_value=4

Request: Could you tell me which EC50 is on file for O=S(=O)(Nc1ccccc1-c1ccc2c(c1)OC[C@@H](Cc1ccc(-c3ccccc3)cc1)[C@H]2O)C(F)(F)F (racemic) ?
Response: 2290
